Protocol: Half life in Beagle dog at 1 mg/kg, iv by LC-MS analysis
Format: ADME, organism-based, Canis lupus familiaris
Assay Setup: in vivo
Value Type: half-life

query_smiles=O=C(OC(C(F)(F)F)C(F)(F)F)N1CCN(Cc2ccc(C(F)(F)F)cc2N2CCCC2)CC1 result="6.1 h"

###

Study Target: UniProt:Q12809
Sequence (Q12809 whole entry): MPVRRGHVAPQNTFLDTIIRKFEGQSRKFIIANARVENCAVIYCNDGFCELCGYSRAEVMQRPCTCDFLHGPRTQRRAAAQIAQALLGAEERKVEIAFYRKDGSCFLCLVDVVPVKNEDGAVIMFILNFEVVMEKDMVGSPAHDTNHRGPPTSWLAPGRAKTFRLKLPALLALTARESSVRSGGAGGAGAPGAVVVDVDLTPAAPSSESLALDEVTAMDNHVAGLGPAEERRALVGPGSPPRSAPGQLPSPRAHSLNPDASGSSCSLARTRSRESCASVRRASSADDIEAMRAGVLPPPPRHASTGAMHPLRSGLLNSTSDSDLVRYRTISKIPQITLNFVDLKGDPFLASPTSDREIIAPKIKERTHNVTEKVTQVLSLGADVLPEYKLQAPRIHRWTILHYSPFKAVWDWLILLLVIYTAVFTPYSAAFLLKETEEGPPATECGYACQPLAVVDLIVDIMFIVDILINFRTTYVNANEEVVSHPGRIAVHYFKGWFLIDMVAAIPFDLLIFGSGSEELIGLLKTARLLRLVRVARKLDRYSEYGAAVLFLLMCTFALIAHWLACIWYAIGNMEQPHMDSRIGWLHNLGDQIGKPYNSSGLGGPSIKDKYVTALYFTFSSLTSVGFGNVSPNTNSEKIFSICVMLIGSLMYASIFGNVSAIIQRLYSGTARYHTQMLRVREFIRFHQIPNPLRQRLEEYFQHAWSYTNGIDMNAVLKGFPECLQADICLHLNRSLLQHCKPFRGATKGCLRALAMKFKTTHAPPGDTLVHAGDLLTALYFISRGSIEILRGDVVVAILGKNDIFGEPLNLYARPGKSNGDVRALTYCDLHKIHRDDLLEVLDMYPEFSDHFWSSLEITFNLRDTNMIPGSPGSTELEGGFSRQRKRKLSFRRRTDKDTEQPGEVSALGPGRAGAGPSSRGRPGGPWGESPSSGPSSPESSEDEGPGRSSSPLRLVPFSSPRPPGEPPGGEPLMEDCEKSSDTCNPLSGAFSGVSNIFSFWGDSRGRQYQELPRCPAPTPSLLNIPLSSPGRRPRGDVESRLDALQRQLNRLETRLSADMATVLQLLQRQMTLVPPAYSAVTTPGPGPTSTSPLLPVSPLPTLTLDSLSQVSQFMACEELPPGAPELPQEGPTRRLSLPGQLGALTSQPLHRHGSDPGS
Protocol: Inhibition of human ERG
Value Type: IC20 (µM)

query_smiles=O=C(OC(C(F)(F)F)C(F)(F)F)N1CCN(Cc2ccc(C(F)(F)F)cc2N2CCCC2)CC1 study_target=UniProt:Q12809 result=7

###

Protocol: Tmax in Sprague-Dawley rat at 1 mg/kg, iv or 5 mg/kg, po by LC-MS analysis
Format: ADME, organism-based
Assay Setup: in vivo
Value Type: Tmax (h)

query_smiles=O=C(OC(C(F)(F)F)C(F)(F)F)N1CCN(Cc2ccc(C(F)(F)F)cc2N2CCCC2)CC1 uom=h result=8

###

Protocol: Oral bioavailability in Sprague-Dawley rat at 5 mg/kg by LC-MS analysis
Assay type: ADME, organism-based
Assay Setup: in vivo
Value Type: bioavailability (%)

compound="O=C(OC(C(F)(F)F)C(F)(F)F)N1CCN(Cc2ccc(C(F)(F)F)cc2N2CCCC2)CC1 [ELCUBRAGISTAT]" result=64

###

Study Target: Platelet-activating factor acetylhydrolase (Homo sapiens)
Sequence (Q13093 whole entry): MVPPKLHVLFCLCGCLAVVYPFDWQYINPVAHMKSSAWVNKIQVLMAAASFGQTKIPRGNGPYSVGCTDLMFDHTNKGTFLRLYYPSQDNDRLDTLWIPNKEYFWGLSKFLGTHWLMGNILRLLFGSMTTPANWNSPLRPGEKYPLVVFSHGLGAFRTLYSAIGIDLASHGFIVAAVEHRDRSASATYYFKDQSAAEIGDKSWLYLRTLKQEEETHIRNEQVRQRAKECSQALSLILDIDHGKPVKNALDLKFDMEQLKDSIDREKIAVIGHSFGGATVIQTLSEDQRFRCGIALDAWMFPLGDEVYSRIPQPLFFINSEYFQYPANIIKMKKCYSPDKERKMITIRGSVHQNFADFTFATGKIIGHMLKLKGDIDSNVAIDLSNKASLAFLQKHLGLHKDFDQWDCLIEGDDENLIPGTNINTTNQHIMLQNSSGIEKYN
Protocol: Inhibition of PLA2G7 derived from human PC3 cell lysates preincubated for 30 mins followed by JW912 addition after 30 mins by gel-based ABPP assay
Here, each record is paired with measured IC50 data.
Value Type: IC50

query_smiles=O=C(OC(C(F)(F)F)C(F)(F)F)N1CCN(Cc2ccc(C(F)(F)F)cc2N2[C@@H]3CC[C@H]2COC3)CC1 study_target="Platelet-activating factor acetylhydrolase (Homo sapiens)" result="> 1 µM"
query_smiles=Cc1cc(Cl)ccc1C(c1ccc(Cl)cc1C)N1CCN(C(=O)OC(C(F)(F)F)C(F)(F)F)CC1 study_target="Platelet-activating factor acetylhydrolase (Homo sapiens)" result="> 10 µM"
query_smiles=O=C(OC(C(F)(F)F)C(F)(F)F)N1CCN(Cc2cc(Cl)ccc2N2CCOCC2)CC1 study_target="Platelet-activating factor acetylhydrolase (Homo sapiens)" result="> 10 µM"
query_smiles=O=C(OC(C(F)(F)F)C(F)(F)F)N1CCN(Cc2ccc(C(F)(F)F)cc2N2CCC3(CCOCC3)C2)CC1 study_target="Platelet-activating factor acetylhydrolase (Homo sapiens)" result="> 1 µM"
query_smiles=O=C(OC(C(F)(F)F)C(F)(F)F)N1CCN(Cc2c(Cl)cccc2N2CCOCC2)CC1 study_target="Platelet-activating factor acetylhydrolase (Homo sapiens)" result="> 10 µM"
query_smiles=O=C(OC(C(F)(F)F)C(F)(F)F)N1CCN(Cc2ccc(C(F)(F)F)cc2N2CCCC2)CC1 study_target="Platelet-activating factor acetylhydrolase (Homo sapiens)" result="> 10 µM"
query_smiles=O=C(OC(C(F)(F)F)C(F)(F)F)N1CCN(Cc2ccc(C(F)(F)F)cc2N2C[C@H]3CC[C@@H](C2)O3)CC1 study_target="Platelet-activating factor acetylhydrolase (Homo sapiens)" result="> 1 µM"
query_smiles=O=C(OC(C(F)(F)F)C(F)(F)F)N1CCN(Cc2ccc(Cl)cc2N2CCCCC2)CC1 study_target="Platelet-activating factor acetylhydrolase (Homo sapiens)" result="> 10 µM"
query_smiles=O=C(OC(C(F)(F)F)C(F)(F)F)N1CCN(C(c2ccc(Cl)cc2)c2ccc(Cl)cc2)CC1 study_target="Platelet-activating factor acetylhydrolase (Homo sapiens)" result="> 1 µM"
